biological target: Platelet-derived growth factor receptor beta (Homo sapiens)
Sequence (P09619 whole entry): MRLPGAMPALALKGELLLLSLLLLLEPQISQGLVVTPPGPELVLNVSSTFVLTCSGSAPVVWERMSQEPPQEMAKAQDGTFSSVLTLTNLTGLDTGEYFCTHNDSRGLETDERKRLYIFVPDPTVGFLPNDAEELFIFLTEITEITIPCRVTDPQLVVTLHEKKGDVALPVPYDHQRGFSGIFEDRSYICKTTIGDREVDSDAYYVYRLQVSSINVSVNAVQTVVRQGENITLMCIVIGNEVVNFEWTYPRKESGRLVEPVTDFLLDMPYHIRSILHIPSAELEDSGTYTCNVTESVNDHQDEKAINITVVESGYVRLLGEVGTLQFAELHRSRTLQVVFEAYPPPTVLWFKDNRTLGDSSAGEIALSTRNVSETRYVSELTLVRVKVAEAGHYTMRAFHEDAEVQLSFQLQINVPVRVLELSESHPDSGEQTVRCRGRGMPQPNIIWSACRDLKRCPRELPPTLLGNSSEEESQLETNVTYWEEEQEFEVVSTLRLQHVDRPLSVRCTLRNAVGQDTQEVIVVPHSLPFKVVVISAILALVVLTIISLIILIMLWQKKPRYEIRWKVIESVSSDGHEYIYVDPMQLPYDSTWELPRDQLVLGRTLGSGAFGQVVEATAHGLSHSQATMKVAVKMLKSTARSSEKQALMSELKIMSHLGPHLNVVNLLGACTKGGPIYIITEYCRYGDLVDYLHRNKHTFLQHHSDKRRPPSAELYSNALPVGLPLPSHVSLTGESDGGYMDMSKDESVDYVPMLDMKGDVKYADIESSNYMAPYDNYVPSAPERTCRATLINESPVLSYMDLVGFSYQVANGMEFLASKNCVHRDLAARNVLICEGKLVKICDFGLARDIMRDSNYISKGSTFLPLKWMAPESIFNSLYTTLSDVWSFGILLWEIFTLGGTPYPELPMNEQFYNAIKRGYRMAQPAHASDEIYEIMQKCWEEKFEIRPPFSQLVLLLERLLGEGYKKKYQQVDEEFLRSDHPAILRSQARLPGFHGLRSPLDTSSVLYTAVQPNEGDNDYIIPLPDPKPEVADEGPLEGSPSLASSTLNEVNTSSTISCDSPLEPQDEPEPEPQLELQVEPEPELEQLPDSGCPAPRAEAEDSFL
pIC50: −log10 of the molar value.
reported_endpoint: pIC50

a. Cc1cccc2[nH]c(C(=O)c3cc4cc(O)ccc4[nH]3)cc12
b. O=C(c1cc2cc(O)ccc2[nH]1)c1cc2cc(O)ccc2[nH]1
Challenge: Dear colleague, could you let me know whether a or b has the lower recorded pIC50? Thanks. Mark your answer with the label of the selected entry.
Response given: a
(a: 6.34, b: 6.77)

* * *

pIC50 values, listed per item
biological target: Receptor-type tyrosine-protein kinase FLT3 (Homo sapiens, UniProt P36888); experiment: Inhibition of endogenous FLT3 in EOL1 cells; assay type: cell-based
Sequence (P36888 whole entry): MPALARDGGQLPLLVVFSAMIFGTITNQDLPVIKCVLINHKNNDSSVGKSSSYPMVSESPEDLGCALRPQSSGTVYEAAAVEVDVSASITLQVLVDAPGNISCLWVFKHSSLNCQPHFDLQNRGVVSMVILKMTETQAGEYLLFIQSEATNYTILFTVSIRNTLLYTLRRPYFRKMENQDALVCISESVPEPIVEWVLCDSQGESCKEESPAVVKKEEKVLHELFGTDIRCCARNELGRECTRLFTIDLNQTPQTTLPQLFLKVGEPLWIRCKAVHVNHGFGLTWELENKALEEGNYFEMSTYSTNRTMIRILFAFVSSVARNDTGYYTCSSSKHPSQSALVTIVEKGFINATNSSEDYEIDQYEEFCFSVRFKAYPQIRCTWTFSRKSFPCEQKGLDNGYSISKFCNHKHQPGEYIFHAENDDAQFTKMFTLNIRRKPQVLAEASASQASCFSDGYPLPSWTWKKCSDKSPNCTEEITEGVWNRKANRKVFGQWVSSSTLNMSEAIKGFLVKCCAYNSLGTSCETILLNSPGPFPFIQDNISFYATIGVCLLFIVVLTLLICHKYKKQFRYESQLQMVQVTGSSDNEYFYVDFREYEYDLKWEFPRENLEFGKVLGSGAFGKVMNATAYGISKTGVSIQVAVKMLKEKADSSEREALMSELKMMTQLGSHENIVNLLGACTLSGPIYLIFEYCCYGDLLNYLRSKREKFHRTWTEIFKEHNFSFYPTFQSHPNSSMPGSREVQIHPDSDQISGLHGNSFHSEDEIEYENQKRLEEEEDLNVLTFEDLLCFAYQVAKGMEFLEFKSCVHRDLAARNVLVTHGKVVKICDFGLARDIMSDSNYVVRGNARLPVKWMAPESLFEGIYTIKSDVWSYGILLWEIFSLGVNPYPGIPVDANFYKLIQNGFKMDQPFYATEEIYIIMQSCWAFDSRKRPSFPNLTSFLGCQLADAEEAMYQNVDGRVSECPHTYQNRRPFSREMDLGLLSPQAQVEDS
pIC50: −log10 of the molar value.

Recorded results for 4 compounds are shown here.
INSERT INTO measurements (chemical_string, target_or_system, reported_endpoint, reported_value) VALUES
  ('O=C(c1cc2cc(O)ccc2[nH]1)c1cc2cccc(F)c2[nH]1', 'Receptor-type tyrosine-protein kinase FLT3 (Homo sapiens, UniProt P36888)', 'pIC50', '< 4.52'),
  ('COc1ccc2[nH]c(Cc3cc4ccccc4[nH]3)cc2c1', 'Receptor-type tyrosine-protein kinase FLT3 (Homo sapiens, UniProt P36888)', 'pIC50', '< 4.52'),
  ('COc1ccc2[nH]c(Cc3cc4cc(F)ccc4[nH]3)cc2c1', 'Receptor-type tyrosine-protein kinase FLT3 (Homo sapiens, UniProt P36888)', 'pIC50', '< 4.52'),
  ('O=C(c1cc2cc(O)ccc2[nH]1)c1cc2cc(O)ccc2[nH]1', 'Receptor-type tyrosine-protein kinase FLT3 (Homo sapiens, UniProt P36888)', 'pIC50', 7.40);

Below: the item to evaluate.
Challenge: Look up pIC50: `COc1ccc2[nH]c(C(=O)c3cc4cccc(Cl)c4[nH]3)cc2c1`
Response given: < 4.52

src = ChEMBL document CHEMBL1147798
